These data points were gathered from paper PMC7766159.

System: TK6 cells
assay info: Cytostasis analysis (Relative Population Doubling, Guava ViaCount)
Format: cell-based, human
condition parameters: 75 µM, 26 h treatment, vs untreated control C (-) = 100%, mean ± SEM
Text: In addition, to make the genotoxicity test reliable, it is necessary to check the cellular proliferation in order to verify that a sufficient number of cells has undergone mitosis and so transmitted the genetic damage suffered to the daughter cells. For this purpose, the OECD recommends the measurement of the Relative Population Doubling (RPD) to estimate the cytostasis and, analogously to the cytotoxicity, establishes a threshold at most equal to 55 ± 5% [45]. […]
readout: Relative Population Doubling (RPD) (%)

INSERT INTO measurements (compound, readout, unit, obs_value) VALUES
  ('COc1cc(CCN)c(OC)cc1Br', 'Relative Population Doubling (RPD)', '%', 0.0),
  ('COc1cc(CCNCc2ccccc2OC)c(OC)cc1Br [25B-NBOMe]', 'Relative Population Doubling (RPD)', '%', 0.0);
